- Protocol details: rat acute oral toxicity
- Condition details: in vivo
Recorded endpoint: log10 of LD50 (log10 of the value in mg/kg)
Please note: log10 values; quantity LD50; unit mg/kg.

Ask | # get_value(readout='log10 of LD50', item= CCO[Si](CCC#N)(OCC)OCC )
Reply | 3.75

Ask | Given the compound Oc1c(Cl)cc(Cl)c(Cl)c1Cc1c(O)c(Cl)cc(Cl)c1Cl , what is its reported log10 of LD50?
Reply | 1.75

Ask | Request the reported log10 of LD50 associated with COP(=S)(Oc1cc(Cl)c(Br)cc1Cl)c1ccccc1 (stereo not given)
Reply | 1.28

Ask | Bench note: what log10 of LD50 did NCCNCCNCCNCCN show?
Reply | 3.32

Ask | For CCOc1ccc(NC(C)=O)cc1 , what is its reported log10 of LD50?
Reply | 3.22

Ask | Recorded log10 of LD50 for CCCCCCCCOC(=O)c1ccccc1C(=O)OCCCCCCCC , please?
Reply | 4.67

Ask | Fill in the blank: the reported log10 of LD50 of O=C1CCCC(=O)O1 is ____.
Reply | 2.73

====

- Protocol details: GHS categories as the set defines them, by LD50: 1 up to 5, 2 up to 50, 3 up to 300, 4 up to 2000, 5 above 2000 mg/kg
- Condition details: rat; in vivo; po
GHS category values for the molecules below.
Answer as a number with no unit attached.

| Molecule | GHS category |
| --- | --- |
| NC(=O)c1ccc(NC(=O)c2ccc([N+](=O)[O-])cc2)cc1 | 5 |
| CCCc1c(Cc2ccc(-c3ccccc3-c3nn[nH]n3)cc2)c(=O)nc2nc(N(CC)CC)[nH]n12 | 4 |
| CCCCCCCCCCCCCCCCCCCC | 5 |
| O=C1CCCCCN1 | 4 |
| C=CC(=C)CCC=C(C)C | 5 |

Now take the following molecule into account.
Ask | I'd like to know its GHS category. The molecule in question is CC(C)CCCCCCCCCCCCCCCO
Reply | 5

====

- Protocol details: rat acute oral toxicity
- Condition details: in vivo
Readings of LD50 for the listed compounds
Give just the number in mg/kg; leave the unit off.

Previously resolved entries follow.
| Compound | LD50, mg/kg |
| --- | --- |
| N#CCCCCCCC#N | 238 |
| ClC1(Cl)C2(Cl)C3(Cl)C4(Cl)C(Cl)(Cl)C5(Cl)C3(Cl)C1(Cl)C5(Cl)C24Cl (centres undefined) | 235 |
| CCCCCCCC(=O)OC | 10100 |
| CC(O)COCC(C)O (centres undefined) | 14800 |
| O=P(Oc1ccccc1)(Oc1ccccc1)Oc1ccccc1 | 3500 |

--- query ---
Ask | Need LD50, item CCOP(=S)(OCC)Oc1ccc(S(C)=O)cc1 (centres undefined)
Reply | 1.8

====

- Protocol details: GHS categories as the set defines them, by LD50: 1 up to 5, 2 up to 50, 3 up to 300, 4 up to 2000, 5 above 2000 mg/kg
- Condition details: rat; in vivo; po
Recorded endpoint: GHS category
Give a plain numeric answer without units written out.

Below, each entry is followed by its recorded GHS category result.
| Compound | GHS category |
| --- | --- |
| Cc1ccc(Cl)cc1N=Nc1c(O)c(C(=O)Nc2cc(C)c(NC(=O)c3cc4ccccc4c(N=Nc4cc(Cl)ccc4C)c3O)cc2C)cc2ccccc12 | 5 |
| Cc1ccccc1OP(Oc1ccccc1C)Oc1ccccc1C | 4 |
| O=C1CCc2c(cccc2OCCCN2CCC(Cc3ccccc3)CC2)N1 | 4 |
| NNC(=O)CCCCC(=O)NN | 5 |
| Cc1cc(CCCCCCCOc2ccc(C3=NCCO3)cc2)on1 | 5 |

Ask | Dear colleague, I am looking for the recorded GHS category of the following compound: Cn1c(N)c(NC=O)c(=O)n(C)c1=O
Reply | 5

Ask | What GHS category value was documented for this compound, CCCc1c(Cc2ccc(-c3ccccc3-c3nn[nH]n3)cc2)c(=O)nc2nc[nH]n12 ?
Reply | 4

====

Recorded GHS category, one value per entry.
- Protocol details: GHS categories as the set defines them, by LD50: 1 up to 5, 2 up to 50, 3 up to 300, 4 up to 2000, 5 above 2000 mg/kg
- Condition details: rat; in vivo; po
Simply state the number, no unit and no words.

Solved entries (count: 2):
| Molecule | Recorded endpoint | Numeric value |
| --- | --- | --- |
| CO[Si](C)(OC)OC | GHS category | 5 |
| C[C@@H]1CCO[C@@](Cn2cncn2)(c2cc3ccccc3o2)O1 | GHS category | 4 |

--- query ---
Ask | Query: GHS category; subject: O=c1[nH]c(=O)n(C2OC(CO)C(O)C2O)cc1C=CBr (stereo not drawn)
Reply | 5

====

- Protocol details: GHS categories as the set defines them, by LD50: 1 up to 5, 2 up to 50, 3 up to 300, 4 up to 2000, 5 above 2000 mg/kg
- Condition details: rat; in vivo; po
Recorded endpoint: GHS category
API doc: respond with a numeric literal and nothing else, no unit.

Ask | Fill in the blank: the reported GHS category of O=C1COc2cc(C(=O)c3ccc(Cl)cc3)ccc2N1 is ____.
Reply | 5

Ask | What does the data say about its GHS category? Entry: COCCOc1nc(Nc2ccc(C=Cc3ccc(Nc4nc(OCCOC)nc(N(C)CCS(=O)(=O)O)n4)cc3S(=O)(=O)O)c(S(=O)(=O)O)c2)nc(N(C)CCS(=O)(=O)O)n1
Reply | 5

Ask | Please look up its GHS category: CO[C@]1(C)CC[C@@]23C[C@@H]1C(C)(C)[C@@H]2CC[C@H]3C
Reply | 5

Ask | GHS category for COc1ccc(C2c3ccc(OC)cc3CCN2c2ccccc2)cc1 (centres undefined) ?
Reply | 4

====

- Protocol details: GHS categories as the set defines them, by LD50: 1 up to 5, 2 up to 50, 3 up to 300, 4 up to 2000, 5 above 2000 mg/kg
- Condition details: rat; in vivo; po
Recorded measurements of GHS category, one per entry
Write no unit; give the number alone.

Examples from the recorded data:
| Molecule | Recorded endpoint | Numeric value |
| --- | --- | --- |
| CC1OC(Cn2cncn2)(c2cc3cc(Cl)cc(Cl)c3o2)OC1C (stereo unspecified) | GHS category | 4 |
| CCCCCC1COCCC1OC(C)=O (stereo unspecified) | GHS category | 5 |
| O=C(O)C(=O)[C@@H](O)[C@H](O)[C@H](O)CO | GHS category | 5 |

Ask | Which GHS category reading was recorded for the molecule CCOC(=O)C1=C(C)NC(C[P+](c2ccccc2)(c2ccccc2)c2ccccc2)=C(C(=O)OCC)C1c1cccc([N+](=O)[O-])c1 (stereo unspecified) ?
Reply | 4

Ask | Please report the recorded GHS category for Cc1cnc2c(C(=O)O)c(Cl)ccc2c1 .
Reply | 5

Ask | Returns the measured GHS category for the input molecule. Input: O=C(Nc1ccc(Cl)cc1)c1ccccc1
Reply | 4

====

Overview of recorded GHS category for various compounds
- Protocol details: GHS categories as the set defines them, by LD50: 1 up to 5, 2 up to 50, 3 up to 300, 4 up to 2000, 5 above 2000 mg/kg
- Condition details: rat; in vivo; po
The answer should be a number; do not append a unit.

Here is how some compounds turned out for GHS category.
| Substance smiles | Numeric value |
| --- | --- |
| C#CCNC(=O)Oc1cccc2c1OC(C)(C)O2 | 3 |
| O=C(O)CCCCCCCCCCCC(=O)O | 5 |

Attention now turns to another entry.
Ask | Returns the measured GHS category for the input compound. Input: CNC(=O)C(C#N)=c1[nH]c(=C2C(=O)NC(=O)NC2=O)c2ccccc12
Reply | 5

====

- Protocol details: GHS categories as the set defines them, by LD50: 1 up to 5, 2 up to 50, 3 up to 300, 4 up to 2000, 5 above 2000 mg/kg
- Condition details: rat; in vivo; po
Recorded endpoint: GHS category
Reply with just the number.

| Compound | Numeric value |
| --- | --- |
| CC1CC(OC(=O)C(Oc2ccc(Cl)cc2)C(C)C)CC(C)(C)C1 (stereo not given) | 5 |
| COc1cc([N+](=O)[O-])ccc1N=NC(C(C)=O)C(=O)Nc1cc(Cl)ccc1OC (stereo not given) | 5 |
| CN1C(=O)c2ccc3c4ccc5c6c(ccc(c7ccc(c2c37)C1=O)c64)C(=O)N(C)C5=O | 5 |
| CC(=O)OC1CCC2C3CCC4CC(=O)CCC4(C)C3CCC12C (stereo not given) | 5 |
| CCOC[C@@H]1[C@@H](O)[C@H](O[C@H]2[C@H](O)[C@@H](OCC)[C@H](O)O[C@@H]2CO)O[C@H](COCC)[C@H]1O | 5 |

Ask | // returns reported GHS category for input NS(=O)(=O)c1cc2c(cc1Cl)NC(C1CC3C=CC1C3)NS2(=O)=O (stereo not given)
Reply | 5

Ask | Entry under review: CCCCCCC(C)C=O (stereo not given) . Reported GHS category?
Reply | 5

Values were extracted from the CATMoS acute toxicity set (Mansouri et al. 2021).
